These measurements were taken from patent US20240317847A1.

Catalogue of hIL2RA ELISA Binding: Ratio to Isotpye values
Target: T1, human IL2Ra (human, UniProt P01589 22-240, limits assumed)
T1 construct: bought protein, coated on the plate; also called hIL2RA; IL-2 receptor alpha
T1 sequence (looked up): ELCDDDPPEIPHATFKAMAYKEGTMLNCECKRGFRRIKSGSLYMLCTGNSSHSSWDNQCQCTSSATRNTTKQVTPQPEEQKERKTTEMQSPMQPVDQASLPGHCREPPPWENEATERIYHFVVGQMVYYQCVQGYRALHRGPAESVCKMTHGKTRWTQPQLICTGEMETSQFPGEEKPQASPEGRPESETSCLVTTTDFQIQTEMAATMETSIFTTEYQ
Test: IL2Ra direct binding ELISA, signal ratio to isotype control
Please reply with the bare figure in ratio and do not write the unit itself.

Reference set (2 entries):
| binder | obs.value |
| --- | --- |
| TPP-26313 (antibody, V domains shown) VH: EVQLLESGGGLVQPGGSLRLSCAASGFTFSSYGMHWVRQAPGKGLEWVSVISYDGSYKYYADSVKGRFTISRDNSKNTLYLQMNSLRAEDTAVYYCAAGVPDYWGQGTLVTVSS VL: QSVLTQPPSASGTPGQRVTISCTGSSSNIGAYYDVHWYQQLPGTAPKLLIYSNNERPSGVPDRFSGSKSGTSASLAISGLRSEDEADYYCAAWDDSLNGPVFGGGTKLTVL | 195 |
| TPP-26315 (antibody, V domains shown) VH: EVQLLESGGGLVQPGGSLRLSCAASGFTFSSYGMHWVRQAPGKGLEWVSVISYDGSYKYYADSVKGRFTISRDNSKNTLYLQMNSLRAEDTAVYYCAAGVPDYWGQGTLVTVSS VL: QSVLTQPPSASGTPGQRVTISCTGSSSNIGAHYDVHWYQQLPGTAPKLLIYSNNERPSGVPDRFSGSKSGTSASLAISGLRSEDEADYYCAAWDDSLNGPVFGGGTKLTVL | 205 |

Now for the binder whose hIL2RA ELISA Binding: Ratio to Isotpye we want.
input: State its hIL2RA ELISA Binding: Ratio to Isotpye for this binder: TPP-26324 (antibody, V domains shown) VH: EVQLLESGGGLVQPGGSLRLSCAASGFTFSSYGMHWVRQAPGKGLEWVSVISYDGSYKYYRDSVKGRFTISRDNSKNTLYLQMNSLRAEDTAVYYCAAGVPDYWGQGTLVTVSS VL: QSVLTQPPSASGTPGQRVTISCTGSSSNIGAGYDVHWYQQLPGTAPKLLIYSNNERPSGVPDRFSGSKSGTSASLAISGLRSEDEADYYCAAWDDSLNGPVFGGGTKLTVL
output: 247
